Tested on: axenic iRFP-L. infantum amastigotes from bone marrow cells
run.description: Axenic amastigote viability assay (iRFP fluorescence, first screening)
Format: cell-based
recorded.conditions: Leishmania infantum, Bone marrow cell, cut-off 25 µM, 72 h, read-out: Axenic Amastigotes (concentration with inhibition)
Method: The 1,5- and 1,8-fused naphthyridine derivatives were evaluated as antileishmanial agents in assays using two forms of L. infantum amastigotes: axenic amastigotes recovered from bone marrow cells of infected BALB/c mice and intramacrophagic amastigotes obtained from splenic explants of the same subjects. […] This strain allows monitoring the viability of both forms of the parasite by quantifying the fluorescence emitted at 700 nm by the iRFP protein produced by living amastigotes. […]
measure: minimal effective concentration

Worked examples follow.
[
  {
    "compound": "Cc1ccc(S(=O)(=O)N2CC3C(Nc4ccc(Br)nc4[C@H]3c3ccccc3)c3ccccc32)cc1 (stereo partly drawn)",
    "minimal effective concentration": "< 25 µM"
  },
  {
    "compound": "O=c1oc2ccccc2c2nc3ncccc3c(-c3ccccc3)c12 [Compound 13a]",
    "minimal effective concentration": "< 25 µM"
  }
]

Give the reported minimal effective concentration for O=c1oc2ccccc2c2nc3ccc(Br)nc3c(-c3ccccc3)c12 (system: axenic iRFP-L. infantum amastigotes from bone marrow cells). > 25 µM

Give the reported minimal effective concentration for c1ccc(-c2c3c(nc4ncccc24)-c2ccccc2OC3)cc1 [Compound 11a] (system: axenic iRFP-L. infantum amastigotes from bone marrow cells). < 25 µM

Give the reported minimal effective concentration for O=C1Oc2ccccc2C2Nc3ccc(Br)nc3[C@@H](c3ccccc3)C12 (stereo partly drawn) (system: axenic iRFP-L. infantum amastigotes from bone marrow cells). < 25 µM

Give the reported minimal effective concentration for c1ccc([C@@H]2c3ncccc3NC3c4ccccc4OCC32)cc1 (stereo partly drawn) (system: axenic iRFP-L. infantum amastigotes from bone marrow cells). > 25 µM

Give the reported minimal effective concentration for Fc1ccc2c(c1)C1Nc3ncccc3[C@@H](c3ccccc3)C1CO2 (stereo partly drawn) [Compound 10b] (system: axenic iRFP-L. infantum amastigotes from bone marrow cells). < 25 µM

Give the reported minimal effective concentration for COc1ccc2nc3c(c(-c4ccccc4)c2n1)COc1ccccc1-3 (system: axenic iRFP-L. infantum amastigotes from bone marrow cells). > 25 µM

Give the reported minimal effective concentration for O=C1Oc2ccccc2C2Nc3ncc(Br)cc3[C@@H](c3ccccc3)C12 (stereo partly drawn) [Compound 12b] (system: axenic iRFP-L. infantum amastigotes from bone marrow cells). > 25 µM
